Data provenance is patent US6768007B2.

Test system: mock-infected H9 cells
measurement_protocol: Cytotoxicity in mock-infected (uninfected) H9 cells
Assay type: cell-based
Cytotoxicity IC50 below 20 µg/mL gives FALSE; Cytotoxicity IC50 at or above it gives TRUE.

molecule="Cc1cc(=O)oc2c3c(c(C(Br)Br)cc12)OC(C)(C)[C@H](OC(=O)[C@@]12CCC(C)(C(=O)O1)C2(C)C)[C@@H]3OC(=O)[C@@]12CCC(C)(C(=O)O1)C2(C)C (relative stereo)" category_label=FALSE
molecule="CC1(C)Oc2ccc3cc(CN)c(=O)oc3c2[C@@H](OC(=O)[C@@]23CC[C@@](C)(C(=O)O2)C3(C)C)[C@H]1OC(=O)[C@@]12CC[C@@](C)(C(=O)O1)C2(C)C (relative stereo)" category_label=TRUE
molecule="Cc1cc(=O)oc2c3c(c(CO)cc12)OC(C)(C)[C@H](OC(=O)[C@@]12CCC(C)(C(=O)O1)C2(C)C)[C@@H]3OC(=O)[C@@]12CCC(C)(C(=O)O1)C2(C)C (relative stereo)" category_label=FALSE
molecule="CC1(C)Oc2ccc3cc(CBr)c(=O)oc3c2[C@@H](OC(=O)[C@@]23CC[C@@](C)(C(=O)O2)C3(C)C)[C@H]1OC(=O)[C@@]12CC[C@@](C)(C(=O)O1)C2(C)C (relative stereo)" category_label=FALSE
molecule="Cc1c(CBr)c(=O)oc2c3c(ccc12)OC(C)(C)[C@H](OC(=O)[C@@]12CC[C@@](C)(C(=O)O1)C2(C)C)[C@@H]3OC(=O)[C@@]12CC[C@@](C)(C(=O)O1)C2(C)C (relative stereo)" category_label=FALSE
molecule="CC(=O)OCc1cc2c(C)cc(=O)oc2c2c1OC(C)(C)[C@H](OC(=O)[C@@]13CCC(C)(C(=O)O1)C3(C)C)[C@@H]2OC(=O)[C@@]12CCC(C)(C(=O)O1)C2(C)C (relative stereo)" category_label=TRUE
molecule="CCN(CC)Cc1cc2ccc3c(c2oc1=O)[C@@H](OC(=O)[C@@]12CC[C@@](C)(C(=O)O1)C2(C)C)[C@@H](OC(=O)[C@@]12CC[C@@](C)(C(=O)O1)C2(C)C)C(C)(C)O3 (relative stereo)" category_label=TRUE
molecule="CC1(C)Oc2ccc3cc(CO)c(=O)oc3c2[C@@H](OC(=O)[C@@]23CCC(C)(C(=O)O2)C3(C)C)[C@H]1OC(=O)[C@@]12CCC(C)(C(=O)O1)C2(C)C (relative stereo)" category_label=TRUE
molecule="CC1(C)Oc2ccc3cc(C(Br)Br)c(=O)oc3c2[C@@H](OC(=O)[C@@]23CCC(C)(C(=O)O2)C3(C)C)[C@H]1OC(=O)[C@@]12CCC(C)(C(=O)O1)C2(C)C (relative stereo)" category_label=FALSE
molecule="Cc1cn([C@H]2C[C@H](N=[N+]=[N-])[C@@H](CO)O2)c(=O)[nH]c1=O [AZT, reference compound]" category_label=TRUE
molecule="CC1(C)Oc2c(CBr)cc3ccc(=O)oc3c2[C@@H](OC(=O)[C@@]23CCC(C)(C(=O)O2)C3(C)C)[C@H]1OC(=O)[C@@]12CCC(C)(C(=O)O1)C2(C)C (relative stereo)" category_label=FALSE
molecule="Cc1cc(=O)oc2c3c(c(CBr)cc12)OC(C)(C)[C@H](OC(=O)[C@@]12CC[C@@](C)(C(=O)O1)C2(C)C)[C@@H]3OC(=O)[C@@]12CC[C@@](C)(C(=O)O1)C2(C)C (relative stereo)" category_label=TRUE
